Experiment: Cytotoxicity printed in the DENV4 lines (Tables 11-15)
Type: cell-based
Conditions: cells not given
Quantity measured: CC50

Please look at this compound and report its CC50: COc1ncc(-c2cn([C@@H]3O[C@H](CO[P@@](=O)(N[C@@H](C)C(=O)OC(C)C)Oc4ccccc4)[C@H](O[P@@](=O)(N[C@@H](C)C(=O)OC(C)C)Oc4ccccc4)C3(C)F)cn2)c(OC)n1 (stereo partly shown) > 100 µM

====

Assay: in vitro
Settings: human
Quantity measured: CC50 (µM)
A number alone suffices; assume µM.

Please look at this molecule and report its CC50: CNc1cc(-c2cncn2[C@@H]2O[C@H](CO[P@@](=O)(N[C@@H](C)C(=O)OC(C)C)Oc3ccccc3)[C@H](O[P@@](=O)(N[C@@H](C)C(=O)OC(C)C)Oc3ccccc3)C2(C)F)nc(N)n1 (some centres unmarked) [CEM-034] 35.4

Please look at this molecule and report its CC50: COc1ncc(-c2cn([C@@H]3O[C@H](CO[P@@](=O)(N[C@@H](C)C(=O)OC(C)C)Oc4ccccc4)[C@H](O[P@@](=O)(N[C@@H](C)C(=O)OC(C)C)Oc4ccccc4)C3(C)F)cn2)c(OC)n1 (some centres unmarked) [CDW3-015] 1.74

====

Test: in vitro
Quantity measured: CC50

Please look at this compound and report its CC50: CNc1nc(N)ncc1-c1cn([C@@H]2O[C@H](COP(=O)(NC(C)C(=O)OC(C)C)Oc3ccccc3)C(O)C2(C)F)cn1 (stereo in doubt) > 100 µM

====

Test: in vitro
Quantity measured: CC50

Please look at this molecule and report its CC50: CNc1cc(-c2cncn2[C@@H]2O[C@H](CO[P@@](=O)(N[C@@H](C)C(=O)OC(C)C)Oc3ccccc3)[C@H](O[P@@](=O)(N[C@@H](C)C(=O)OC(C)C)Oc3ccccc3)C2(C)F)nc(N)n1 (stereo partly shown) > 100 µM

====

Tested on: Dengue Virus 2
Assay: microbe, parasite or virus in culture
Assay type: cell-based, strain New Guinea C
Conditions: Huh-7
Quantity measured: EC50 (µM)
A number alone suffices; assume µM.

Please look at this compound and report its EC50: Nc1nc(=O)n([C@@H]2C[C@@H](O)[C@H](CO)O2)cc1-c1ccco1 [CHK-05] 79

====

Tested on: Ebola Virus
Assay: microbe, parasite or virus in culture
Format: cell-based, strain Zaire
Conditions: Zaire ebolavirus, Vero
Quantity measured: EC50 (µM)
A number alone suffices; assume µM.

Please look at this compound and report its EC50: NC(=O)c1nc(F)c[nH]c1=O [Favipiravir, reference compound] 12

====

Test system: Rift Valley Fever Virus
Assay: microbe, parasite or virus in culture
Type: cell-based
Quantity measured: pIC50
// returns pIC50 (minus log10 of molar concentration), number only

Fill: pIC50 (Rift Valley Fever Virus) for this compound CNc1nc(N)ncc1-c1cn([C@@H]2O[C@H](COP(=O)(NC(C)C(=O)OC(C)C)Oc3ccccc3)C(O)C2(C)F)cn1 (stereo in doubt) 4.13

====

System: Vero
Quantity measured: CC50

Fill: CC50 (Vero) for this molecule CCC(CC)COC(=O)[C@H](C)NP(=O)(OCCOCn1cnc(-c2cnc(OC)nc2OC)c1)Oc1ccccc1 (stereo partly shown) [JT-005] > 100 µM

====

Assay: in vitro
Details: human
As shown below, each of these compounds has a reported CC50 value.
A number alone suffices; assume µM.

Worked cases, CC50 given:
INSERT INTO assay_data (compound, units_symbol, reported_value) VALUES
  ('CCC(CC)COC(=O)[C@H](C)N[P@](=O)(OCCOCn1cncc1-c1cnc(N)nc1OC)Oc1ccccc1', 'µM', 28),
  ('CC(C)OC(=O)[C@H](C)N[P@](=O)(OC[C@H]1O[C@@H](n2cnc(-c3cnc(N)nc3)c2)C(C)(F)[C@H]1O)Oc1ccccc1 (some centres unmarked)', 'µM', 33.4),
  ('CNc1cc(-c2cncn2[C@@H]2O[C@H](CO[P@@](=O)(N[C@@H](C)C(=O)OC(C)C)Oc3ccccc3)[C@H](O[P@@](=O)(N[C@@H](C)C(=O)OC(C)C)Oc3ccccc3)C2(C)F)nc(N)n1 (some centres unmarked)', 'µM', 85);

Next compound, CC50 to be filled in.
Please look at this compound and report its CC50: COc1ncc(-c2cn([C@@H]3O[C@H](CO[P@@](=O)(N[C@@H](C)C(=O)OC(C)C)Oc4ccccc4)[C@H](O)C3(C)F)cn2)c(OC)n1 (some centres unmarked) 274
